I'd be grateful if you could share measured GI50 for these entries.
# Test system: HOP-92
# METHOD_SUMMARY: NCI tumour cell line growth inhibition, 48 h
Counter-ions that a name gives are not always drawn. Activity calls are given as the source filed them. No stated cut-off is given here; in the data, active = GI50 up to about 1.1 µM and inactive = higher. Square brackets hold non-standard residues; d marks the D form. Peptide text beside a SMILES is read from it. Phe(4-Cl) = N[CH](Cc1ccc(Cl)cc1)C(=O)O; 2Nal = N[CH](Cc1ccc2ccccc2c1)C(=O)O; 3Pal = N[CH](Cc1cccnc1)C(=O)O

Look over these answered cases.
>>> test_value("O=C(N/C(=C\\c1cccc([N+](=O)[O-])c1)c1nc2cc([N+](=O)[O-])ccc2[nH]1)c1ccccc1")
"21.4 µM (inactive)"
>>> test_value("Nc1nn2c(=O)c3ccccc3nc2s1")
"> 100 µM (inactive)"

I need GI50 for every entry listed below, if you could help.
1. CC(C(=O)O)C1Nc2ccccc2NC1=O (stereo not given)
2. CCOC(=O)C1(N)CC1
3. COC(=O)C(CC12CC3CC(CC(C3)C1)C2)NC(=O)C(N)CC(=O)O (stereo not given)
4. COC(=O)/C=C/c1cc(OC)c2oc(-c3ccc(OC)c(OC)c3)c(C(=O)OC)c2c1

["> 100 µM (inactive)", "> 100 µM (inactive)", "> 100 µM (inactive)", "> 100 µM (inactive)"]

I need GI50 for every entry listed below, if you could help.
1. COC(=O)c1ccccc1/N=C/c1ccc(N(CCC#N)S(=O)(=O)c2ccccc2)cc1
2. O=c1cc(O)ccn1C1C=C(CO)C(O)C1O (stereo not given)
3. CSc1nc(NC2OCC(OC(C)=O)C(OC(C)=O)C2OC(C)=O)c(/N=C(\C)C(C)=O)c(=O)n1C (stereo not given)
4. C#Cc1cccc(Nc2ncnc3cc(OCCOC)c(OCCOC)cc23)c1 [ERLOTINIB HYDROCHLORIDE]
5. OCCCc1cc(O)c2c(c1)C(CO)C(c1ccc(O)c(O)c1)O2 (stereo not given)
6. O=C(Nc1cccc(C(F)(F)F)c1)O/N=C(/Cl)CCl
7. CCCCCNC(=O)c1c(O)[nH]c(=S)[nH]c1=O

1. > 100 µM (inactive)
2. 192 µM (inactive)
3. > 100 µM (inactive)
4. 4.05 µM (inactive)
5. > 100 µM (inactive)
6. 22 µM (inactive)
7. > 100 µM (inactive)

I need GI50 for every entry listed below, if you could help.
1. CC1(C)Cc2c(cnn2-c2ccc(C(F)(F)F)cc2)-c2[nH]c(-c3ccc(O)cc3)nc21
2. C=CC[C@H]1[C@H](O[Si](C)(C)C(C)(C)C)C=CC(=O)[C@@H]1CC(=O)N(Cc1ccccc1)Cc1ccccc1
3. N=c1oc2ccc([N+](=O)[O-])cc2cc1C(=O)NCc1ccccc1
4. COC1O[C@@H]2CCN3C(=O)[C@@H](OC(=O)c4ccc([N+](=O)[O-])cc4)[C@H]1C23 (stereo not given in full)
5. CCOC(=O)c1sc2c(c1OC(=O)c1ccco1)c(=O)n(-c1ccccc1)c(=S)n2-c1ccccc1
6. Cc1ccc(S(=O)(=O)NC(=O)C2(Br)S(=O)(=O)OCCOS2(=O)=O)cc1

1. 17.9 µM (inactive)
2. 2.09 µM (inactive)
3. 18 µM (inactive)
4. > 100 µM (inactive)
5. 30.2 µM (inactive)
6. > 100 µM (inactive)

I need GI50 for every entry listed below, if you could help.
1. CC1OC(NCCNCCNC2OC(C)C(O)C(O)C2O)C(O)C(O)C1O (stereo not given)
2. COc1cc(-c2ccc(/N=N/c3c(S(=O)(=O)O)cc4cc(S(=O)(=O)O)cc(N)c4c3O)c(OC)c2)ccc1/N=N/c1c(S(=O)(=O)O)cc2cc(S(=O)(=O)O)cc(N)c2c1O

["> 100 µM (inactive)", "34 µM (inactive)"]

I need GI50 for every entry listed below, if you could help.
1. CC(=O)NC(Cc1ccc2ccccc2c1)C(=O)NC(Cc1ccc(Cl)cc1)C(=O)NC(Cc1cccnc1)C(=O)NC(CO)C(=O)NC(Cc1ccc(O)cc1)C(=O)NC(CCCN=C(N)N)C(=O)NC(CC(C)C)C(=O)NC(CCCN=C(N)N)C(=O)N1CCCC1C(=O)NC(C)C(N)=O (stereo not given) (Ac-[2Nal][Phe(4-Cl)][3Pal]SYRLRPA-NH2; configuration not given here)
2. C1=CC2CCC1CN2CCC1CNc2ccccc21 (stereo not given)
3. O=S(=O)(N/C(=N\O)Nc1ccc(Cl)cc1)c1ccccc1
4. COP(=O)(OC)/C(=N\Nc1ccc([N+](=O)[O-])cc1)NCc1ccccc1

> 100 µM (inactive)
> 100 µM (inactive)
2.94 µM (inactive)
18.8 µM (inactive)
